- Read-out: Plasminogen activator inhibitor-1 (PAI1), SERPINE1 (gene 5054)
- assay.remarks: BSK_MyoF_PAI1: BioMAP Diversity Plus: MyoF Assay for Plasminogen activator inhibitor-1 (PAI1) Biomarker Activity (AID 2284256)
- condition.notes: primary human lung fibroblasts
Active and inactive are the calls of the source. How the source made its calls: active means hit-call score of the fitted dose curve at least 0.9, where 1 is the maximum; inactive means score below 0.9.
recorded.endpoint: AC50

{"compound": "C=CC(=O)OCC(Br)CBr (stereo not drawn)", "AC50": "7.93 µM (active)"}

Shifting focus to the compound that follows.
Consider C=CCOc1c(Br)cc(Br)cc1Br . Its measured AC50 is 26.6 µM (active)

* * *

- assay.remarks: ATG_CMV_CIS: Attagene CIS-FACTORIAL HepG2 Assay for human CMV (Internal Marker) (AID 2282928);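 further: endpoint acts as a background internal control marker rather than a target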
- condition.notes: HepG2 CMV promoter reporter, transcription factor profiling; actives raise or lower the signal
- Procedure: ATG_CIS is a cell-based, multiplexed-readout assay that uses HepG2, a human liver cell line, with measurements taken at 24 hours after chemical dosing in a 24-well plate.ATG_CMV_CIS is one of 52 assay component(s) measured or calculated from the ATG_CIS assay. […] This assay endpoint, ATG_CMV_CIS, was analyzed with bidirectional fitting relative to DMSO as the negative control and baseline of activity. […]
Calls of active or inactive are those of the source. Rule for the calls: active = hit-call score of the fitted dose curve at least 0.9, where 1 is the maximum; inactive = score below 0.9.
Select the matching outcome among TRUE (active), FALSE (inactive)

Sample answers from the record:
{"molecule": "CC(C)=CCC/C(C)=C\\C#N", "cat": "FALSE"}
{"molecule": "O=C1Nc2ccccc2C1(c1ccc(O)cc1)c1ccc(O)cc1", "cat": "TRUE"}

Query block: Assay outcome for CCCCC/C=C\CCC=O : what was it?
Result block: FALSE

Query block: Write down the call the test reported for this molecule. Item: O=C(O)CCCC[C@@H]1SC[C@@H]2NC(=O)N[C@@H]21
Result block: FALSE

Query block: What outcome does the record of this test show for CC(C)CC(O)Cc1ccccc1 (centres undefined) ?
Result block: FALSE

Query block: For Cc1ccc(C(C)c2ccc(C)c(C)c2)cc1C , what call appears in the results of this test?
Result block: TRUE

Query block: Answer briefly: the call reported for COCCOCCOCCOCCOC in this assay.
Result block: FALSE

Query block: Assay result, entry COc1ccc(C(Cl)=C(c2ccc(OC)cc2)c2ccc(OC)cc2)cc1 — outcome?
Result block: FALSE
